Test system: SK-MEL-5 melanoma
method: NCI tumour cell line growth inhibition, 48 h
experimental.readout: TGI

Provide reported TGI for each item, in the same order as listed.
1. CN(C)CC/C(=N\Nc1ccc([N+](=O)[O-])cc1)c1ccccc1
2. COc1cc(CSc2nc3ccc(C)cc3c(=O)n2-c2ccccc2)cc(OC)c1OC
3. CC(=O)C(=C(c1ccccc1)c1ccccc1)c1ccccc1

OUT:
28.5 µM
19.9 µM
> 100 µM

---

Consider the following compounds; for each one, report its TGI.
Test system: UO-31 renal
method: NCI tumour cell line growth inhibition, 48 h

Record excerpt, results attached:
{"compound": "COc1cc2c(oc(=O)c3c4oc([Si](C)(C)C)cc4cc(OC)c23)c2cccc(OCc3ccccc3)c12", "TGI": "> 100 µM"}
{"compound": "Oc1ccccc1/C=C/c1csnn1", "TGI": "> 100 µM"}
{"compound": "COc1cc(CSc2nc3ccc(C)cc3c(=O)n2-c2ccccc2)cc(OC)c1OC", "TGI": "> 100 µM"}

Provide reported TGI for each item, in the same order as listed.
1. Cc1ccc(Nc2n[nH]c(=S)s2)cc1C
2. C#Cc1c(F)ccc2cc(O)cc(-c3ncc4c(N5CC6CCC(C5)N6)nc(OC[C@@]56CCCN5C[C@H](F)C6)nc4c3F)c12
3. Oc1c(C(Nc2cccc3cccnc23)c2ccccc2)ccc2cccnc12 (stereo unspecified)
4. Nc1ncnn2c(C3OC(CO)C(O)C3O)ccc12 (stereo unspecified)
5. CN(C)CCN1C(=O)c2ccccc2N(C)c2ccccc21
6. CCOC(=O)C1=C(C)OC2(O)C=CC(O)=C3C(=O)N(c4ccccc4)C(=O)C312 (stereo unspecified)
7. CNc1ncnc2c1ncn2C1C=CC(COS(N)(=O)=O)C1 (stereo unspecified)

OUT:
1. > 100 µM
2. > 50.2 µM
3. > 100 µM
4. 0.494 µM
5. > 100 µM
6. 65.4 µM
7. > 100 µM

IN: Identify measured TGI corresponding to CC(=O)OCC1OC(n2cnc(C(N)=S)c2N)C(OC(C)=O)C1OC(C)=O (stereo unspecified)
OUT: > 100 µM

---

Test system: RPMI-8226 leukemia
method: NCI tumour cell line growth inhibition, 48 h
Consider the following compounds; for each one, report its TGI.

Record excerpt, results attached:
{"compound": "COc1cc([C@@H]2OC[C@@H]3C(c4cc(OC)c5c(c4)OCO5)OC[C@@H]32)cc(OC)c1OC (stereo partly specified)", "experimental.system": "RPMI-8226 leukemia", "TGI": "> 100 µM"}
{"compound": "C=CCN1C(=O)/C(=C/c2ccc(OC)cc2)N=C1SC/C=C/C", "experimental.system": "RPMI-8226 leukemia", "TGI": "> 100 µM"}
{"compound": "O=C(O)CNC(=O)c1ccc(-c2ccccc2)cc1", "experimental.system": "RPMI-8226 leukemia", "TGI": "> 100 µM"}
{"compound": "CCOC(=O)c1cccn1S(=O)(=O)c1cc(Cl)ccc1NC(=O)CC", "experimental.system": "RPMI-8226 leukemia", "TGI": "> 100 µM"}
{"compound": "COc1cc(/C=C2/C(=O)N(C(=O)OCC(C)C)C(Cc3cc(OC)c(OC)c(C)c3OC)C(=O)N2Cc2ccccc2)c(OC)c(C)c1OC (stereo unspecified)", "experimental.system": "RPMI-8226 leukemia", "TGI": "> 100 µM"}

Provide reported TGI for each item, in the same order as listed.
1. CNS(=O)(=O)NN(C)S(=O)(=O)c1ccccc1
2. C1=NCCN2CCN(CCN=Cc3ccc(cc3)OCc3cccc(n3)COc3ccc1cc3)CC2
3. COC(=O)C1(C)CCC(c2ccc(C)cc2)=C(CC(=O)O)C1 (stereo unspecified)

OUT:
1: > 100 µM; 2: > 50 µM; 3: > 100 µM

Provide reported TGI for each item, in the same order as listed.
1. O=c1[nH]c2cc([N+](=O)[O-])ccc2nc1/C(=N/Nc1ccccc1)C(O)c1ccccc1Cl (stereo unspecified)
2. COc1cc2c(cc1C)NC(=O)/C2=C/c1ccccn1
3. CCC(C)(CC(C)(C)C(=O)NCC(=O)NC(Cc1ccccc1)C(=O)NC(Cc1ccccc1)C(=O)NCC(=O)NC1CC(OC2CC(O)(C(=O)CO)Cc3c(O)c4c(c(O)c32)C(=O)c2c(OC)cccc2C4=O)OC(C)C1O)C(=O)NCC(C)O (stereo unspecified)
4. COc1cc(CSc2nc3ccc(C)cc3c(=O)n2-c2ccccc2)cc(OC)c1OC

OUT:
1. > 100 µM
2. > 100 µM
3. > 150 µg/mL
4. > 100 µM

Provide reported TGI for each item, in the same order as listed.
1. COc1ccc(-c2c[nH]c(C(=O)O)c2-c2cc(OC)c(OC)c(OC)c2)cc1
2. Cn1c2ccccc2n2c(N=O)c(-c3ccccc3)nc12
3. CN(C)Nc1cc(=O)[nH]c(=O)[nH]1
4. Cc1cc2c(cc1C)N(C(=O)CCl)CC(=O)N2

OUT:
> 100 µM
> 100 µM
> 100 µM
7.15 µM

Provide reported TGI for each item, in the same order as listed.
1. CCCCNc1nc(C#N)c(N)s1
2. CN(CCCCCl)P(=O)(OCc1ccc([N+](=O)[O-])o1)OC[C@H]1O[C@@H](n2cc(F)c(=O)[nH]c2=O)C[C@@H]1O (stereo partly specified)
3. CSc1nc(C#N)c(/N=C\N(C)C)n1C

OUT:
1: > 100 µM; 2: 38.4 µM; 3: > 100 µM

Provide reported TGI for each item, in the same order as listed.
1. COC(=O)N/N=C(\Cc1ccccc1)CN(C)C
2. Clc1ccc(C2SCc3nc4ccccc4n32)c(Cl)c1 (stereo unspecified)
3. COc1ccc(C2=CC(c3ccc4c(c3)OCO4)c3c(c4ccccc4oc3=O)O2)cc1OC (stereo unspecified)
4. COC(=O)c1ccc(C)cc1CC1Cc2cc(C)ccc2C1=O (stereo unspecified)
5. CCC1C2Cc3ccc(O)cc3C1(CC)CCN2C (stereo unspecified)
6. O=C(Nc1ccc(Cl)cc1)c1cc2cc(N=Nc3ccccc3Cl)ccc2oc1=O
7. c1ccc2[nH]c(-c3ccc(-c4nccc5c4[nH]c4ccccc45)cc3)nc2c1

OUT:
> 100 µM
41.1 µM
> 65.3 µM
> 100 µM
> 100 µM
30.3 µM
5.61 µM

Provide reported TGI for each item, in the same order as listed.
1. O=c1[nH]c2cc(Cl)ccc2nc1/C(=N\O)C(O)c1cccc([N+](=O)[O-])c1 (stereo unspecified)
2. COC(=O)c1nc(-c2ccccc2)oc1S(=O)(=O)Cc1ccccc1
3. O=[N+]([O-])/C(C(Cl)=C(Cl)Cl)=C(\N1CCOCC1)n1nnc2ccccc21
4. COc1cc([N+](=O)[O-])c(OC)cc1-c1nc2sc(Cl)cn2c1/C(N)=N/C(=N)N
5. O=C1/C(=C/c2cccc(F)c2)CCCc2ccccc21

OUT:
> 100 µM
9.51 µM
> 100 µM
20.5 µM
53.7 µM

---

System: HCC-2998 colon
method: NCI tumour cell line growth inhibition, 48 h
Consider the following compounds; for each one, report its TGI.

Record excerpt, results attached:
{"compound": "CCOc1ccc(NC(=O)C(=O)CC(=O)c2sc(NNC(C)=O)nc2C)cc1", "experimental.readout": "TGI", "measurement": "> 100 µM"}
{"compound": "COC(=O)N/N=C(\\Cc1ccccc1)CN(C)C", "experimental.readout": "TGI", "measurement": "> 100 µM"}
{"compound": "COc1ccc(CN2c3ccccc3Sc3ccccc32)c(F)c1", "experimental.readout": "TGI", "measurement": "> 100 µM"}
{"compound": "CC[C@]1(Cc2ccc(OC)c(OC)c2)C=[N+]([O-])O[C@H](OC2CCCC2(c2ccccc2)c2ccccc2)[C@@H]1OC(=O)c1ccccc1 (stereo partly specified)", "experimental.readout": "TGI", "measurement": "> 27.4 µM"}
{"compound": "C/C(=N\\NS(=O)(=O)c1ccc(C)cc1)C(CN1CCCCC1)C(c1ccccc1)c1c(O)c2ccccc2oc1=O (stereo unspecified)", "experimental.readout": "TGI", "measurement": "> 100 µM"}

IN: Identify measured TGI corresponding to COc1cc(CSc2nc3ccc(C)cc3c(=O)n2-c2ccccc2)cc(OC)c1OC
OUT: > 100 µM

---

Consider the following compounds; for each one, report its TGI.
Test system: OVCAR-8 ovarian
method: NCI tumour cell line growth inhibition, 48 h
Numbers only, in µM.

{"compound": "C=C(C)C(=O)O[C@H]1CC(=C)[C@@H]2C[C@H](O)[C@](O)(CCl)[C@@H]2[C@H]2OC(=O)C(=C)[C@@H]21", "experimental.readout": "TGI", "measurement": 12.8}

Provide reported TGI for each item, in the same order as listed.
1. Cc1cccc(C)c1NC(=O)C(C#N)C1=C(Cl)C(=O)c2ccccc2C1=O (centres undefined)
2. CCS(CC)(CC)CC1CCCC2=CCC(P(=O)(c3ccccc3)c3ccccc3)CC21 (centres undefined)
3. COc1ccc2nc3cccc([N+](=O)[O-])c3c(NCCCCCC(=O)O)c2c1
4. C[C@]12C=CC(=O)C=C1CC[C@@H]1[C@@H]2CC[C@]2(C)OC(=O)CC[C@@H]12
5. Nc1ncnn2c(C3OC(CO)C(O)C3O)ccc12 (centres undefined)

OUT:
[48.5, 31.4, 2.22, 498, 0.746]

Taken from PubChem BioAssay (NCI).
